# Target Of Assay: HCV core protein (core106) dimerization
# Procedure Summary: HCV core106 dimer disruption potency, late-stage follow-up, biochemical, AlphaScreen luminescence, powder samples (AID 651577)
# Cond: AlphaScreen GST-/Flag-core106 dimerization
Activity calls are given as the source filed them.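 The calls were made as follows: active = IC50 at or below 10 µM; inactive = IC50 above 10 µM.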
Labels: active, inactive

# Chemical Smiles, Target Of Assay, Classification
rows = [
    ("Cc1ccc(Cc2c(C)nc3nc(SCC(=O)NCCN4CCCN(S(C)(=O)=O)CC4)nn3c2C)cc1", "HCV core protein (core106) dimerization", "active"),
    ("Cc1ccc(Cc2c(C)nc3nc(SCC(=O)NCCN4CCN(CCc5ccccc5)CC4)nn3c2C)cc1", "HCV core protein (core106) dimerization", "inactive"),
    ("Cc1ccc(Cc2c(C)nc3nc(SCC(=O)NCCN4CCCCCC4)nn3c2C)cc1", "HCV core protein (core106) dimerization", "active"),
    ("Cc1ccc(Cc2c(C)nc3nc(SCC(=O)NCCN4CCN(Cc5ccc(F)cc5)CC4)nn3c2C)cc1", "HCV core protein (core106) dimerization", "inactive"),
    ("Cc1ccc(Cc2c(C)nc3nc(SCC(=O)NCCN4CCN(Cc5ccccc5)CC4)nn3c2C)cc1", "HCV core protein (core106) dimerization", "inactive"),
    ("Cc1ccc(Cc2c(C)nc3nc(SCC(=O)NCCN4CCNCC4)nn3c2C)cc1", "HCV core protein (core106) dimerization", "active"),
]
